System: OVCAR-4 ovarian
ASSAY TEXT: NCI tumour cell line growth inhibition, 48 h
Answer each item with its documented GI50.

Observe how each entry below is paired with its result.
compound=Cc1cc(Nc2nc(-c3cccnc3)nc3ccccc23)n[nH]1 target_of_assay="OVCAR-4 ovarian" meas_value="2.05 µM"
compound="COc1ccc(/C=c2\\sc3n(c2=O)C2C(NN=3)N(C)C(=O)N2C)cc1 (stereo not drawn)" target_of_assay="OVCAR-4 ovarian" meas_value="> 100 µM"
compound=Nc1ccccc1.[C-]#[O+].[C-]#[O+].[C-]#[O+].[C-]#[O+].[C-]#[O+].[Cr] target_of_assay="OVCAR-4 ovarian" meas_value="6.7 µM"

For each listed entry, give its GI50.
1. COC1=C(C)C(=O)c2c(c(CCCl)c3n2CCC3O)C1=O (stereo not drawn)
2. CCC(c1ccc(OC)cc1)C(CC)c1ccc(O)c(CN2CCN(C)CC2)c1 (stereo not drawn)
3. CCOC(=O)c1c(C)n(Cc2ccccc2)c2c1cc(O)c1[nH]c(Cc3ccccc3)nc12
4. N[C@@H]1C(=O)N2C(C(=O)OC(c3ccccc3)c3ccccc3)=C(CCl)CS[C@H]12
5. Nc1nc(N)c(C=Nc2ccc(Br)cc2)c(Nc2ccc(Br)cc2)n1

["9.36 µM", "7.22 µM", "10.9 µM", "44.8 µM", "10.6 µM"]
